molecular target: T1, nfP2X7 CAR 1; experiment: flow cytometry, CAR T cells, anti-His-FITC, EGFR+ MFI over background 0.4
T1 construct: Expressed on T cells with truncated EGFR as marker gene; also called anti-nfP2X7 receptor CAR 1; nfP2X7 targeted CAR on EGFR+ T cells
measured_attribute: HisTag MFI Ratio (background 0.4)

binder	measured_attribute	experimental_result
CD33 PURIFIED BRIDGE (Fab, V domains shown, also called old variant; original E200 CD33 Fab bridging molecule derived from lintuzumab) VH: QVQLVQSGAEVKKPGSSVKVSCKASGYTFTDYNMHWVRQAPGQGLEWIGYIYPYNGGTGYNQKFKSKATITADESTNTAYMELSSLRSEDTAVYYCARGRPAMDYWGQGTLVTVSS VL: DIQMTQSPSSLSASVGDRVTITCRASESVDNYGISFMNWFQQKPGKAPKLLIYAASNQGSGVPSRFSGSGSGTDFTLTISSLQPDDFATYYCQQSKEVPWTFGQGTKVEIKR	HisTag MFI Ratio (background 0.4)	4
CD33 BRIDGE variant B26 (Fab, V domains shown, Lintuzumab-based Fab bridging molecule) VH: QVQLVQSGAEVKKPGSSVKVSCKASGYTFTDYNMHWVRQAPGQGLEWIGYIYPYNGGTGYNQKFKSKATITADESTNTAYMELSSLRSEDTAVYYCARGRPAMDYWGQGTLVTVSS VL: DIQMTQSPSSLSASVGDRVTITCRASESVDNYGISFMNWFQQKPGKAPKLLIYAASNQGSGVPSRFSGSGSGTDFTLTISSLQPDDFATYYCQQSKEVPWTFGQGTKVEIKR	HisTag MFI Ratio (background 0.4)	3.1
CD33 BRIDGE variant B9 (Fab, V domains shown, Lintuzumab-based Fab bridging molecule) VH: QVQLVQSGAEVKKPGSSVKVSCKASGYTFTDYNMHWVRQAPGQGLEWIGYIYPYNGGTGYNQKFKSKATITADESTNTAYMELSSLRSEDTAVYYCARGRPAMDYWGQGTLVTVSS VL: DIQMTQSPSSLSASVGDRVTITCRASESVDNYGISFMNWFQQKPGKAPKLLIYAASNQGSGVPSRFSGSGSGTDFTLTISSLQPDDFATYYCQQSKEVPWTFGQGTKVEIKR	HisTag MFI Ratio (background 0.4)	2.9

Provenance of the data: patent US20250281611A1
